Numbers sourced from paper PMC6749325.

Items are presented alongside their recorded IC50.
Test system: NRK cells
assay explanation: NRK cell IC50 estimation (cytotoxicity, crystal violet)
Assay type: cell-based
experimental parameters: Rattus norvegicus, NRK, 48 h, 48 h incubation
A number alone suffices; assume µg/mL.

C=CC1CN2CCC1CC2C(O)c1cc(CCC(C)C2CCC3C4C(OC(C)=O)CC5CC(OC(C)=O)CCC5(C)C4CCC23C)nc2ccccc12 (centres unmarked) [Hybrid 4f] :: 6.69
C=CC1CN2CCC1CC2C(O)c1cc(CCC(C)C2CCC3C4CCC5CC(OC(C)=O)CCC5(C)C4CCC23C)nc2ccccc12 (centres unmarked) [Hybrid 4e] :: 7.5

Next up:
Prompt line: Look at this compound and give its reported IC50. C=CC1CN2CCC1CC2C(O)c1cc(CCC(C)C2CCC3C4C(OC(C)=O)CC5CC(OC(C)=O)CCC5(C)C4CCC23C)nc2ccc(OC)cc12 (centres unmarked) [Hybrid 4b]
Response line: 3.91

----------
Items are presented alongside their recorded NRK Cells IC50.
Tested on: NRK cells
assay explanation: NRK cell IC50 estimation (cytotoxicity, crystal violet)
Type: cell-based
experimental parameters: 48 h incubation
Could you give the number and then its unit, please?

C=CC1CN2CCC1CC2C(O)c1cc(CCC(C)C2CCC3C4CCC5CC(OC(C)=O)CCC5(C)C4CCC23C)nc2ccc(OC)cc12 (centres unmarked) [Hybrid 4a] :: 1.41 ± 0.13 µg/mL
C=CC1CN2CCC1CC2C(O)c1cc(CCC(C)C2CCC3C4C(O)CC5CC(O)CCC5(C)C4CCC23C)nc2ccccc12 (centres unmarked) [Hybrid 5h] :: 0.67 ± 0.05 µg/mL
C=CC1CN2CCC1CC2C(O)c1cc(CCC(C)C2CCC3C4CCC5CC(OC(C)=O)CCC5(C)C4CCC23C)nc2ccccc12 (centres unmarked) [Hybrid 4g] :: 12.30 ± 0.81 µg/mL

Prompt line: Look at this molecule and give its reported NRK Cells IC50. C=CC1CN2CCC1CC2C(O)c1cc(CCC(C)C2CCC3C4C(OC(C)=O)CC5CC(OC(C)=O)CCC5(C)C4CCC23C)nc2ccc(OC)cc12 (centres unmarked) [Hybrid 4d]
Response line: 3.30 ± 0.08 µg/mL

Prompt line: Look at this molecule and give its reported NRK Cells IC50. C=CC1CN2CCC1CC2C(O)c1cc(CCC(C)C2CCC3C4CCC5CC(OC(C)=O)CCC5(C)C4CCC23C)nc2ccc(OC)cc12 (centres unmarked) [Hybrid 4c]
Response line: 16.53 ± 0.18 µg/mL

Prompt line: Look at this molecule and give its reported NRK Cells IC50. C=CC1CN2CCC1CC2C(O)c1cc(CCC(C)C2CCC3C4CCC5CC(O)CCC5(C)C4CCC23C)nc2ccc(OC)cc12 (centres unmarked) [Hybrid 5a]
Response line: 15.30 ± 4.04 µg/mL

Prompt line: Look at this molecule and give its reported NRK Cells IC50. C=CC1CN2CCC1CC2C(O)c1cc(CCC(C)C2CCC3C4C(OC(C)=O)CC5CC(OC(C)=O)CCC5(C)C4CCC23C)nc2ccccc12 (centres unmarked) [Hybrid 4h]
Response line: 6.50 ± 0.28 µg/mL

Prompt line: Look at this molecule and give its reported NRK Cells IC50. C=CC1CN2CCC1CC2C(O)c1cc(CCC(C)C2CCC3C4C(O)CC5CC(O)CCC5(C)C4CCC23C)nc2ccc(OC)cc12 (centres unmarked) [Hybrid 5b]
Response line: 5.10 ± 0.76 µg/mL

----------
Test system: T. cruzi CL Brener trypomastigotes
assay explanation: Trypomastigote IC50 estimation, CL Brener strain
Assay type: cell-based, Trypanosoma cruzi
experimental parameters: IC50NRK/IC50 parasite, CL Brener trypomastigotes
# if measured Selectivity NRK/T. cruzi (SI) < 9: true  # else: false

Example cases with answers are listed next.
C=CC1CN2CCC1CC2C(O)c1cc(CCC(C)C2CCC3C4CCC5CC(O)CCC5(C)C4CCC23C)nc2ccccc12 (stereo not shown) :: false
C=CC1CN2CCC1CC2C(O)c1cc(CCC(C)C2CCC3C4C(O)CC5CC(O)CCC5(C)C4CCC23C)nc2ccc(OC)cc12 (stereo not shown) [Hybrid 5d] :: true
C=CC1CN2CCC1CC2C(O)c1cc(CCC(C)C2CCC3C4C(O)CC5CC(O)CCC5(C)C4CCC23C)nc2ccc(OC)cc12 (stereo not shown) [Hybrid 5b] :: true
C=CC1CN2CCC1CC2C(O)c1cc(CCC(C)C2CCC3C4CCC5CC(OC(C)=O)CCC5(C)C4CCC23C)nc2ccccc12 (stereo not shown) [Hybrid 4e] :: true

Prompt line: # strict comparison: is reported Selectivity NRK/T. cruzi (SI) < 9? input = C=CC1CN2CCC1CC2C(O)c1cc(CCC(C)C2CCC3C4CCC5CC(OC(C)=O)CCC5(C)C4CCC23C)nc2ccccc12 (stereo not shown) [Hybrid 4g]
Response line: false

Prompt line: # strict comparison: is reported Selectivity NRK/T. cruzi (SI) < 9? input = C=CC1CN2CCC1CC2C(O)c1cc(CCC(C)C2CCC3C4C(OC(C)=O)CC5CC(OC(C)=O)CCC5(C)C4CCC23C)nc2ccc(OC)cc12 (stereo not shown) [Hybrid 4d]
Response line: true

Prompt line: # strict comparison: is reported Selectivity NRK/T. cruzi (SI) < 9? input = C=CC1CN2CCC1CC2C(O)c1cc(CCC(C)C2CCC3C4CCC5CC(O)CCC5(C)C4CCC23C)nc2ccc(OC)cc12 (stereo not shown)
Response line: true

Prompt line: # strict comparison: is reported Selectivity NRK/T. cruzi (SI) < 9? input = C=CC1CN2CCC1CC2C(O)c1cc(CCC(C)C2CCC3C4CCC5CC(OC(C)=O)CCC5(C)C4CCC23C)nc2ccc(OC)cc12 (stereo not shown) [Hybrid 4c]
Response line: false

----------
System: NRK cells
assay explanation: NRK cell IC50 estimation (cytotoxicity, crystal violet)
Format: cell-based
experimental parameters: 48 h incubation
Items are presented alongside their recorded NRK Cells IC50.
A number alone suffices; assume µg/mL.

Below, each entry is followed by its recorded NRK Cells IC50 result.
C=CC1CN2CCC1CC2C(O)c1cc(CCC(C)C2CCC3C4C(O)CC5CC(O)CCC5(C)C4CCC23C)nc2ccc(OC)cc12 (stereo not drawn) [Hybrid 5d] :: 1.59
C=CC1CN2CCC1CC2C(O)c1cc(CCC(C)C2CCC3C4CCC5CC(O)CCC5(C)C4CCC23C)nc2ccccc12 (stereo not drawn) :: 27.11

Prompt line: Look at this compound and give its reported NRK Cells IC50. C=CC1CN2CCC1CC2C(O)c1cc(CCC(C)C2CCC3C4C(O)CC5CC(O)CCC5(C)C4CCC23C)nc2ccccc12 (stereo not drawn) [Hybrid 5f]
Response line: 4.02

----------
Tested on: T. cruzi CL Brener trypomastigotes
assay explanation: Trypomastigote IC50 estimation, CL Brener strain
Format: cell-based, Trypanosoma cruzi
experimental parameters: IC50NRK/IC50 parasite, CL Brener trypomastigotes
# if measured Selectivity NRK/T. cruzi (SI) < 9: satisfied  # else: not satisfied

Prompt line: # strict comparison: is reported Selectivity NRK/T. cruzi (SI) < 9? input = C=CC1CN2CCC1CC2C(O)c1cc(CCC(C)C2CCC3C4CCC5CC(OC(C)=O)CCC5(C)C4CCC23C)nc2ccc(OC)cc12 (centres unmarked) [Hybrid 4a]
Response line: satisfied

Prompt line: # strict comparison: is reported Selectivity NRK/T. cruzi (SI) < 9? input = C=CC1CN2CCC1CC2C(O)c1cc(CCC(C)C2CCC3C4C(O)CC5CC(O)CCC5(C)C4CCC23C)nc2ccccc12 (centres unmarked)
Response line: satisfied

Prompt line: # strict comparison: is reported Selectivity NRK/T. cruzi (SI) < 9? input = C=CC1CN2CCC1CC2C(O)c1cc(CCC(C)C2CCC3C4C(OC(C)=O)CC5CC(OC(C)=O)CCC5(C)C4CCC23C)nc2ccc(OC)cc12 (centres unmarked) [Hybrid 4b]
Response line: satisfied

Prompt line: # strict comparison: is reported Selectivity NRK/T. cruzi (SI) < 9? input = C=CC1CN2CCC1CC2C(O)c1cc(CCC(C)C2CCC3C4C(OC(C)=O)CC5CC(OC(C)=O)CCC5(C)C4CCC23C)nc2ccccc12 (centres unmarked) [Hybrid 4h]
Response line: not satisfied

Prompt line: # strict comparison: is reported Selectivity NRK/T. cruzi (SI) < 9? input = C=CC1CN2CCC1CC2C(O)c1cc(CCC(C)C2CCC3C4C(OC(C)=O)CC5CC(OC(C)=O)CCC5(C)C4CCC23C)nc2ccccc12 (centres unmarked) [Hybrid 4f]
Response line: not satisfied
